Measured target: His6-tagged PP1α_(7–330) Q20R (UniProt P62136 7-330, Q20R)
Sequence (P62136 7-330 Q20R): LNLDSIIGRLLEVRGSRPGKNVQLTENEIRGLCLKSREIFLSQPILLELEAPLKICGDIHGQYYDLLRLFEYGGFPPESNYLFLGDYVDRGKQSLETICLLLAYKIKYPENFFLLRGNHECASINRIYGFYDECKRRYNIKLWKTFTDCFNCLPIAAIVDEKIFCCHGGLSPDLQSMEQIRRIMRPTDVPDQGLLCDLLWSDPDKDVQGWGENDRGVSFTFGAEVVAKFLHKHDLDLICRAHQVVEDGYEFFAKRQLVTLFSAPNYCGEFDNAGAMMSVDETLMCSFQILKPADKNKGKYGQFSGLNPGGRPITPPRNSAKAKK
Experimental protocol: SPR
pKd: −log10 of the molar value.
Readout type: pKd

1: KKVTFGLNRNMTAEFKKTDKSILVSPTGPSRVAFDPEQKPLH (domain or fragment) [RRP1B_(682–723)]
2: KKVTFGLNRNMTAEFKKTDKSILVSPTGPSRVAFDPEQKPLHGVLK (domain or fragment) [RRP1B_(682–727)]
Task: Of 1 versus 2 , which is the one with smaller reported pKd? Bench note: the answer is the label of the chosen record.
Output: 1
(1: 6.94, 2: 7.65)

Origin of values: paper PMC9813921
